These measurements were taken from PubChem BioAssay (NCI).

# Tested on: MDA-MB-435 melanoma
# RUN DESCRIPTION: NCI-60 one-dose screen, 48 h (100 = growth as untreated, 0 = no growth, -100 = all killed)
# CONDITION: 10 µM
Compounds without any hit were thinned out: in the full panel of roughly 83,000, 20% have a hit. Calls of active or inactive are those of the source. The calls were made as follows: active = growth percent below 10; inactive = the rest.
QUANTITY: growth

Look at this compound and give its reported growth. Cc1cccc(C(=O)N(C(C)C)C(C)C)c1
106% (inactive)

Same for Nc1nc2c(c(-c3nc(N)nc4c3CCc3ccccc3-4)n1)CCc1ccccc1-2
109% (inactive)

Same for c1cc2cccc3c4cccc5cccc(c(c1)c23)c54
111% (inactive)

Same for CC(=O)C1CCCCC1
104% (inactive)
